Origin of measurements: patent US10646475B2

molecular target: UniProt:P34897; experiment: SHMT2 in vitro coupled enzymatic assay (coupled with excess MTHFD2, NADH absorption at 340 nm); type: biochemical; conditions: table of Example 6; inhibition of initial reaction velocity
Give measured IC50 for each item. Keep answers brief.
Numbers only, in nM.

Known results for molecules:
### Prompt # query: IC50 of entry Cc1n[nH]c2c1C(c1cc(Cl)cc(C(F)(F)F)c1)(C1CCC1)C(C#N)=C(N)O2 (stereo not shown)
### Response 100

### Prompt # query: IC50 of entry COc1cc(Cl)cc(C2(C(C)C)C(C#N)=C(N)Oc3[nH]nc(C)c32)c1 (stereo not shown)
### Response 500

New cases:
### Prompt # query: IC50 of entry Cc1n[nH]c2c1C(c1cc(C(F)(F)F)cc(C(F)(F)F)c1)(C1CCC1)C(C#N)=C(N)O2 (stereo not shown)
### Response 168

###

target: human SHMT2 (Homo sapiens); experiment: SHMT2 in vitro coupled enzymatic assay (coupled with excess MTHFD2, NADH absorption at 340 nm); format: biochemical; details: table of Example 6; inhibition of initial reaction velocity
Sequence (P34897 30-504): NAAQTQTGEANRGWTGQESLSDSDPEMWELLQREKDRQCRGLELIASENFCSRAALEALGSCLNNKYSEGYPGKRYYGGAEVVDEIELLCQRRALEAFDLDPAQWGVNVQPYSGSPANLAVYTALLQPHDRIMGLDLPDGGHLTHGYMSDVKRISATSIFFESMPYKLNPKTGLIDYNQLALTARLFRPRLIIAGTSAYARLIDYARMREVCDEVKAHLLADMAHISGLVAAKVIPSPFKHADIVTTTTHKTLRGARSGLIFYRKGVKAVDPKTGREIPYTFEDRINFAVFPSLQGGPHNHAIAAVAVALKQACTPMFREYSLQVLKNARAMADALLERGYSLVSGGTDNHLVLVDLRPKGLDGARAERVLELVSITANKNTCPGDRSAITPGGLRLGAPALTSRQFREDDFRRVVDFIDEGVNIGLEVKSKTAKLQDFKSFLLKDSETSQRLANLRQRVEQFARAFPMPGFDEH
Give measured IC50 for each item. Keep answers brief.
Answers are plain numbers, in nM.

### Prompt Form: Entry = Cc1n[nH]c2c1C(c1cccc(Cl)c1)(C(C)C)C(C#N)=C(N)O2 (stereo not drawn) [HK-7] | System = human SHMT2 (Homo sapiens) | IC50 = ____
### Response 400

### Prompt Form: Entry = COc1cccc(C2(C(C)C)C(C#N)=C(N)Oc3[nH]nc(C)c32)c1 (stereo not drawn) [HK-6] | System = human SHMT2 (Homo sapiens) | IC50 = ____
### Response 4580

### Prompt Form: Entry = COc1cc(Cl)cc(C2(C3CCC3)C(C#N)=C(N)Oc3[nH]nc(C)c32)c1 (stereo not drawn) [HK-9] | System = human SHMT2 (Homo sapiens) | IC50 = ____
### Response 3460

### Prompt Form: Entry = CC(C)c1n[nH]c2c1C(c1cc(C(F)(F)F)cc(C(F)(F)F)c1)(C(C)C)C(C#N)=C(N)O2 (stereo not drawn) [KDG-12] | System = human SHMT2 (Homo sapiens) | IC50 = ____
### Response 71

// below: IC50 requested for another compound
### Prompt Form: Entry = Cc1n[nH]c2c1C(c1cccc(Cl)c1)(C1CCC1)C(C#N)=C(N)O2 (stereo not drawn) [HK-3] | System = human SHMT2 (Homo sapiens) | IC50 = ____
### Response 1190

###

biological target: UniProt P34897; test: SHMT2 in vitro coupled enzymatic assay (coupled with excess MTHFD2, NADH absorption at 340 nm); assay type: biochemical; details: Table A; inhibition of initial reaction velocity
endpoint_name: IC50
Report the figure along with its unit, number first.

Known results for compounds:
### Prompt # query: IC50 of entry Cc1n[nH]c2c1C(c1cccc(Cl)c1)(C1CCC1)C(C#N)=C(N)O2 (stereo not shown) [HK-3]
### Response 1190 nM

### Prompt # query: IC50 of entry Cc1n[nH]c2c1C(c1cc(Cl)cc(Cl)c1)(C1CCC1)C(C#N)=C(N)O2 (racemic) [HK-10]
### Response 159 nM

### Prompt # query: IC50 of entry Cc1n[nH]c2c1C(c1cc(Cl)cc(C(F)(F)F)c1)(C1CCC1)C(C#N)=C(N)O2 (stereo not shown) [HK-11]
### Response 100 nM

### Prompt # query: IC50 of entry COc1cccc(C2(C(C)C)C(C#N)=C(N)Oc3[nH]nc(C)c32)c1 (stereo not shown) [HK-6]
### Response 4580 nM

Count: 4. Required value per item: IC50.
1. Cc1n[nH]c2c1C(c1cc(Cl)cc(Cl)c1)(C(C)C)C(C#N)=C(N)O2 (racemic) [HK-14]
2. COc1cc(Cl)cc(C2(C(C)C)C(C#N)=C(N)Oc3[nH]nc(C)c32)c1 (stereo not shown) [HK-13]
3. Cc1n[nH]c2c1C(c1cccc(Cl)c1)(C(C)C)C(C#N)=C(N)O2 (stereo not shown) [HK-7]
4. COc1cc(Cl)cc(C2(C3CCC3)C(C#N)=C(N)Oc3[nH]nc(C)c32)c1 (stereo not shown) [HK-9]

### Response
1: 131 nM; 2: 500 nM; 3: 400 nM; 4: 3460 nM

Count: 2. Required value per item: IC50.
1. Cc1n[nH]c2c1C(c1cc(C(F)(F)F)cc(C(F)(F)F)c1)(C1CCC1)C(C#N)=C(N)O2 (stereo not shown) [HK-12]
2. Cc1n[nH]c2c1C(c1cc(Cl)cc(C(F)(F)F)c1)(C(C)C)C(C#N)=C(N)O2 (racemic) [HK-15]

### Response
["168 nM", "35 nM"]

###

target: human SHMT1 (Homo sapiens, UniProt P34896); assay: SHMT1 in vitro coupled enzymatic assay (coupled with excess MTHFD2, NADH absorption at 340 nm); type: biochemical; settings: table of Example 6; inhibition of initial reaction velocity
Give measured IC50 for each item. Keep answers brief.
Numbers only, in nM.

### Prompt # query: IC50 of entry Cc1n[nH]c2c1C(c1cc(C(F)(F)F)cc(C(F)(F)F)c1)(C1CCC1)C(C#N)=C(N)O2 (stereo not shown)
### Response 206

// below: IC50 requested for another compound
### Prompt # query: IC50 of entry CC(C)c1n[nH]c2c1C(c1cc(C(F)(F)F)cc(C(F)(F)F)c1)(C(C)C)C(C#N)=C(N)O2 (stereo not shown)
### Response 9.3

###

Target: human SHMT1 (Homo sapiens)
Sequence (P34896 1-483): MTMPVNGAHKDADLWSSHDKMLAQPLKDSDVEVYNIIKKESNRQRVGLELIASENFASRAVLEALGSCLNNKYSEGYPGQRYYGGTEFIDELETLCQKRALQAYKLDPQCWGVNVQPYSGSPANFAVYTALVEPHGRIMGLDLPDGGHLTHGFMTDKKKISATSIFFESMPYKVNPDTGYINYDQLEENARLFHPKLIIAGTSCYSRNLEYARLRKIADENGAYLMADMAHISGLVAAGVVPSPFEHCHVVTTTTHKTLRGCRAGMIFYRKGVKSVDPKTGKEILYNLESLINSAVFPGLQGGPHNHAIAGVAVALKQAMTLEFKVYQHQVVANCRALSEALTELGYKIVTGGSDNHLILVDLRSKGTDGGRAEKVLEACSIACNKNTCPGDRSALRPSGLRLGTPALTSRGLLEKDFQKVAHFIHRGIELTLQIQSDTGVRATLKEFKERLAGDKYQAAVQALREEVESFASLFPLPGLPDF
Assay: SHMT1 in vitro coupled enzymatic assay (coupled with excess MTHFD2, NADH absorption at 340 nm)
Assay type: biochemical
Conditions: Table A; inhibition of initial reaction velocity
endpoint_name: IC50

### Prompt # query: IC50 of entry Cc1n[nH]c2c1C(c1cc(Cl)cc(Cl)c1)(C(C)C)C(C#N)=C(N)O2 (racemic) [HK-14]
### Response 67 nM

### Prompt # query: IC50 of entry Cc1n[nH]c2c1C(c1cc(C(F)(F)F)cc(C(F)(F)F)c1)(C1CCC1)C(C#N)=C(N)O2 (stereo not drawn) [HK-12]
### Response 206 nM

// below: IC50 requested for another compound
### Prompt # query: IC50 of entry Cc1n[nH]c2c1C(c1cc(Cl)cc(C(F)(F)F)c1)(C(C)C)C(C#N)=C(N)O2 (racemic) [HK-15]
### Response 20 nM
